pKi: −log10 of the molar value.
Record type: pKi measurement. Applies to: Muscarinic acetylcholine receptor M3 (Homo sapiens, UniProt P20309)
PROPERTY NAME: pKi

| STRUCTURE SMILES STRING | PROPERTY NAME | MEAS VALUE |
| --- | --- | --- |
| CC(C)(C)OC(=O)N1CCN(CC(=O)n2c3ccccc3c3ccccc32)CC1 | pKi | 4.66 |
| O=C(CCN1CCCc2ccccc21)NCc1ccco1 | pKi | 4.92 |
| O=C(CCN1CCCc2ccccc21)N1CCC(O)CC1 | pKi | 4.48 |
| O=C(CCN1CCCc2ccccc21)N1CCC[C@H]1CO | pKi | 4.36 |

(A) CCn1c2ccccc2c2ccc(NCC(=O)N3CCCCC3)cc21
(B) C[C@@H]1CCC[C@H](C)N1C(=O)CCN1CCCc2ccccc21
Exercise: Dear colleague, could you let me know whether A or B has the lower recorded pKi? Thanks. Could you answer with the label of the item you picked?
Solution: A
(A: 4.35, B: 5.45)

* * *

pKi: −log10 of the molar value.
Record type: pKi measurement. Applies to: Muscarinic acetylcholine receptor M3 (Homo sapiens)
PROPERTY NAME: pKi

# annotated cases, reported pKi shown
| MOLECULE | MEAS VALUE |
| --- | --- |
| O=C(CCN1CCCc2ccccc21)N1CCCC(CO)C1 (stereo not drawn) | 5.28 |
| O=C(CN1CCc2ccc(F)cc21)N1CCCC1 | 4.02 |
| O=C(CCN1CCCc2ccccc21)N1CCCC1CO (stereo not drawn) | 4.49 |
| O=C(CN1CCCc2cnccc21)N1CCCC1 | 4.07 |
| O=C(CCN1CCCc2ccccc21)N1CCC1 | 4.94 |

(a) O=C(CCN1CCCc2ccccc21)NC1CCCCC1
(b) O=C(CN1CCCc2ccccc21)N1CCCC1
Exercise: Dear colleague, could you let me know whether a or b has the lower recorded pKi? Thanks. Could you answer with the label of the item you picked?
Solution: b

(A) O=C(CN1CCCc2ccccc21)N1CCCCC1
(B) O=C(O)C1CCCN1C(=O)CCN1CCCc2ccccc21 (stereo not drawn)
Exercise: Dear colleague, could you let me know whether A or B has the lower recorded pKi? Thanks. Could you answer with the label of the item you picked?
Solution: A

* * *

Molecular target: Muscarinic acetylcholine receptor M2 (Homo sapiens)
Assay: Antagonist activity at human muscarinic M2 receptor expressed in CHO cells co-expressing Galpha15 assessed as inhibition of acetylcholine-induced calcium mobilization relative to acetylcholine
PROPERTY NAME: IC50 (µM)

| MOLECULE | ASSAYED TARGET | UNIT OF MEASUREMENT | MEAS VALUE |
| --- | --- | --- | --- |
| O=C(CCN1CCCc2ccccc21)Nc1cccc2cccnc12 | Muscarinic acetylcholine receptor M2 (Homo sapiens) | µM | 0.479 |
| O=C(CN1CCc2ccc(F)cc21)N1CCCC1 | Muscarinic acetylcholine receptor M2 (Homo sapiens) | µM | 75.9 |
| Cn1ccc2c(NC(=O)CCN3CCCc4ccccc43)cccc21 | Muscarinic acetylcholine receptor M2 (Homo sapiens) | µM | 0.427 |

(I) O=C(CCN1CCCc2ccccc21)N1CCCC(O)C1 (centres undefined)
(II) CC1CCCCN1C(=O)CCN1CCCc2ccccc21 (centres undefined)
(III) COC1CN(C(=O)CCN2CCCc3ccccc32)C1
Exercise: Please list these molecules in decreasing order of IC50. Please respond by ranking the labels in the order requested.
Solution: I, III, II
(I: 29.5 µM, III: 20.4 µM, II: 3.16 µM)

(A) CC1CCc2ccccc2N1CC(=O)N1CCCCC1 (centres undefined)
(B) O=C(CCN1CCCc2ccccc21)NCc1ccco1
Exercise: Form field 'greater IC50' accepts A or B ; which applies? Could you answer with the label of the item you picked?
Solution: A
(A: 7.41 µM, B: 1.12 µM)

(I) O=C(CCN1CCCc2ccccc21)N1CCC[C@H]1CO
(II) O=C(CCN1CCCc2ccccc21)NCc1cccs1
Exercise: Dear colleague, could you let me know whether I or II has the lower recorded IC50? Thanks. Could you answer with the label of the item you picked?
Solution: II
(II: 1.02 µM, I: 17.4 µM)

* * *

pKi: −log10 of the molar value.
Record type: pKi measurement. Applies to: Muscarinic acetylcholine receptor M4 (Homo sapiens)
PROPERTY NAME: pKi

| MOLECULE | pKi |
| --- | --- |
| CC1CCCCN1C(=O)CCN1CCCc2ccccc21 (centres undefined) | 5.28 |
| O=C(CCN1CCCc2ccccc21)N1CCCC(CO)C1 (centres undefined) | 5.76 |
| O=C(CCN1CCCc2ccccc21)N1CCC1 | 5.24 |
| O=C(CCN1CCCc2ccccc21)N1CCC(O)CC1 | 4.77 |
| O=C(CCN1CCCc2ccccc21)N1CCCC1CO (centres undefined) | 4.93 |
| C[C@@H]1CCC[C@H](C)N1C(=O)CCN1CCCc2ccccc21 | 5.95 |
| O=C(CCN1CCCc2ccccc21)NCc1ccco1 | 5.36 |
| O=C(CCN1CCCc2ccccc21)N1CCCC1 | 5.80 |

(A) COC1CN(C(=O)CCN2CCCc3ccccc32)C1
(B) O=C(CCN1CCCc2ccccc21)Nc1ccccc1
(C) O=C(CCN1CCCc2ccccc21)N1CCCCC1CO (centres undefined)
(D) O=C(CN1CCCc2ccccc21)N1CCCCC1
Exercise: Sort ascending by pKi. Please respond by ranking the labels in the order requested.
Solution: A, C, D, B
(A: 4.80, C: 5.14, D: 5.91, B: 6.67)

(P) Cn1ccc2c(NC(=O)CCN3CCCc4ccccc43)cccc21
(Q) Cc1ccc2c(c1)CCCN2CC(=O)N1CCCCC1
Exercise: Form field 'greater pKi' accepts P or Q ; which applies? Could you answer with the label of the item you picked?
Solution: P

(a) CC1CCN(C(=O)CCN2CCCc3ccccc32)CC1
(b) O=C(CCN1CCCc2ccccc21)NC1CCCCC1
Exercise: Dear colleague, could you let me know whether a or b has the lower recorded pKi? Thanks. Could you answer with the label of the item you picked?
Solution: a

* * *

Record type: Ki measurement. Applies to: Muscarinic acetylcholine receptor M1 (Homo sapiens)
PROPERTY NAME: Ki (nM)

# annotated cases, reported Ki shown
| MOLECULE | ASSAYED TARGET | PROPERTY NAME | UNIT OF MEASUREMENT | MEAS VALUE |
| --- | --- | --- | --- | --- |
| C[C@@H]1CCC[C@H](C)N1C(=O)CCN1CCCc2ccccc21 | Muscarinic acetylcholine receptor M1 (Homo sapiens) | Ki | nM | 1150 |
| CC1CCCN(C(=O)CCN2CCCc3ccccc32)C1 (stereo not drawn) | Muscarinic acetylcholine receptor M1 (Homo sapiens) | Ki | nM | 603 |

(1) O=C(O)C1CCCN1C(=O)CCN1CCCc2ccccc21 (stereo not drawn)
(2) O=C(CCN1CCCc2ccccc21)Nc1ccccc1
(3) O=C(CCN1CCCc2ccccc21)Nc1cccc2ccccc12
(4) O=C(CCN1CCCc2ccccc21)N1CCC(O)CC1
Exercise: Sort ascending by Ki. Please respond by ranking the labels in the order requested.
Solution: 2, 1, 3, 4
(2: 263 nM, 1: 1050 nM, 3: 9330 nM, 4: 23400 nM)

* * *

Target: UniProt:P08172
Sequence (P08172 whole entry): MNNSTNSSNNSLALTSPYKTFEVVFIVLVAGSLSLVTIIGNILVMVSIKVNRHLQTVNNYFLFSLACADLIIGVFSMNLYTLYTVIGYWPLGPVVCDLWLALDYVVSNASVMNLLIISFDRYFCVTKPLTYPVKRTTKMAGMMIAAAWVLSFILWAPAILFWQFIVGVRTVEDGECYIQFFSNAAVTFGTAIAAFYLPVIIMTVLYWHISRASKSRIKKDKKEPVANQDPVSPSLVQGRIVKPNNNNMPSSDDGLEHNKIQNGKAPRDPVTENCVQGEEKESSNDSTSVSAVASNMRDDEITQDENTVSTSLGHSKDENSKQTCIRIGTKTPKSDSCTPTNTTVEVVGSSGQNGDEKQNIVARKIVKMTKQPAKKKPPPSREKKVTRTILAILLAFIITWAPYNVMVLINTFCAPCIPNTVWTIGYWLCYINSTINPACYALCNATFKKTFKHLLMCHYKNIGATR
pKi: −log10 of the molar value.
PROPERTY NAME: pKi

| COMPOUND | ASSAYED TARGET | PROPERTY NAME | MEAS VALUE |
| --- | --- | --- | --- |
| O=C(CN1CCc2ccc(F)cc21)N1CCCC1 | UniProt:P08172 | pKi | 4.30 |
| O=C(CCN1CCCc2ccccc21)N1CCCC(CO)C1 (stereo unspecified) | UniProt:P08172 | pKi | 6.21 |
| O=C(CCN1CCCc2ccccc21)Nc1ccc(Cl)cc1 | UniProt:P08172 | pKi | 5.48 |

(A) O=C(CCN1CCCc2ccccc21)Nc1ccc(O)cc1F
(B) O=C(O)C1CCCN1C(=O)CCN1CCCc2ccccc21 (stereo unspecified)
(C) CC1CCc2ccccc2N1CC(=O)N1CCCC1 (stereo unspecified)
Exercise: Please list these compounds in decreasing order of pKi. Please respond by ranking the labels in the order requested.
Solution: B, C, A
(B: 6.24, C: 5.61, A: 4.19)

(a) O=C(CCN1CCCc2ccccc21)Nc1cccc2ccccc12
(b) CC1CCCCN1CC(=O)n1c2ccccc2c2ccccc21 (stereo unspecified)
(c) Cn1ccc2c(NC(=O)CCN3CCCc4ccccc43)cccc21
Exercise: Please list these compounds in decreasing order of pKi. Please respond by ranking the labels in the order requested.
Solution: a, c, b

(I) O=C(CCN1CCCc2ccccc21)NCc1ccco1
(II) O=C(CCN1CCCc2ccccc21)Nc1cccc2cccnc12
(III) O=C(CCN1CCCc2ccccc21)N1CCC(O)C1 (stereo unspecified)
Exercise: Sort ascending by pKi. Please respond by ranking the labels in the order requested.
Solution: III, I, II
(III: 4.78, I: 5.91, II: 6.21)

Attribution: ChEMBL document CHEMBL4673268
